Where these numbers come from: patent US8546381B2

For each record, write down the corresponding inhibition at 1 µM.
molecular target: human recombinant adrenergic α2B receptor (Homo sapiens, UniProt P18089); construct: expressed in transfected cells; host or cells: CHO-K1 cells; test: Adrenergic α2B radioligand binding ([3H]Rauwolscine); settings: 1 μM; read-out: Adrenergic α2B, inhibition of ligand binding (1 μM)
Sequence (P18089 whole entry): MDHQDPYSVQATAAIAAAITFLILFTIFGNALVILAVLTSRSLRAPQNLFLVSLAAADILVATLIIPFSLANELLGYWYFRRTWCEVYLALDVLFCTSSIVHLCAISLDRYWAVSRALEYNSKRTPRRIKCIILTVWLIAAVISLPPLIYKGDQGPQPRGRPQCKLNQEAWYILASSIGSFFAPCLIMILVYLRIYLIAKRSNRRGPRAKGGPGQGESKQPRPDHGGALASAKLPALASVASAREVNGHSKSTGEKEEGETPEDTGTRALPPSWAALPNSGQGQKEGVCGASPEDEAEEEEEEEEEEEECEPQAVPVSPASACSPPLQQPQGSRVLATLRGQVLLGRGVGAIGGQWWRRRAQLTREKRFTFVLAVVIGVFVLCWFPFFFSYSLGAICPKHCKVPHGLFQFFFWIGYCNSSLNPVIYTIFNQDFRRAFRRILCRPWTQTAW
One number for each entry, in %.

For orientation, consider the following solved cases.
1) CN1C2CCC1c1c(n(CCc3cccnc3)c3ccc(Cl)cc13)C2 (stereo not drawn) [Compound 80] ... 95
2) COc1ccc(C(C)(O)Cn2c3c(c4cc(Cl)ccc42)C2CCC(C3)N2C)cc1F (stereo not drawn) [Compound 160] ... 80

-- ask Read the entry CN1C2CCC1c1c(n(CCc3ccc(C(F)(F)F)nc3)c3ccc(Cl)cc13)C2 (stereo not drawn) [Compound 34] and write its reported inhibition at 1 µM.
-- reply 103
